Test system: Hexokinase-4 (Homo sapiens, UniProt P35557)
Sequence (P35557 whole entry): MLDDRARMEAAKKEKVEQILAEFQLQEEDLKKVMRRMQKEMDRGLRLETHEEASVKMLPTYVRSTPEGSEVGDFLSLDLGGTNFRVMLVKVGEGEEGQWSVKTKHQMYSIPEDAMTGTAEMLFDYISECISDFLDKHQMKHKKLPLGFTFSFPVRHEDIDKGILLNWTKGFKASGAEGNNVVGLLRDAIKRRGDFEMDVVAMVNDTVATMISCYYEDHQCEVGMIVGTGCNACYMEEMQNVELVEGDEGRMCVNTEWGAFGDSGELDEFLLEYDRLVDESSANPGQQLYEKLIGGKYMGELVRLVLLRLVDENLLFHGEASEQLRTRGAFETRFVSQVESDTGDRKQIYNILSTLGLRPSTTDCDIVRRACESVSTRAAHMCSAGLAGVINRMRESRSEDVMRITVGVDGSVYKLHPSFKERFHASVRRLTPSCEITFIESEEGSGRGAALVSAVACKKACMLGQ
Assay remarks: Activation of recombinant human liver glucokinase 2 assessed as […] in presence of 5 mM glucose by G6PDH coupled assay
Recorded metric: pEC50
Scale explanation: pEC50 corresponds to minus log10 of a concentration expressed in moles per litre.

Consider the worked cases shown below.
INPUT: # query: pEC50 of entry COCC(C)Oc1cc(Oc2ccc(S(C)(=O)=O)cc2)cc(C(=O)Nc2nc3c(s2)CN(C(C)=O)CC3)c1 (configuration not stated)
OUTPUT: 5.65

INPUT: Same again, this time with `COC[C@H](C)Oc1cc(Oc2ccc(C(=O)N3CCC3)cc2)cc(C(=O)Nc2nc3c(s2)CN(C(=O)N(C)C)CC3)c1`
OUTPUT: 6.30

New cases:
INPUT: # query: pEC50 of entry `COC[C@H](C)Oc1cc(Oc2ccc(C(=O)N3CCC3)cc2)cc(C(=O)Nc2nc3c(s2)CN(c2ccncn2)CC3)c1`
OUTPUT: 6.31

INPUT: Same again, this time with `COC[C@H](C)Oc1cc(Oc2ccc(C(=O)N3CCC3)cc2)cc(C(=O)Nc2nc3c(s2)CCN(C(=O)OC(C)(C)C)C3)c1`
OUTPUT: 6.34

====

Test system: Hexokinase-4 (Homo sapiens)
Assay remarks: Activation of recombinant human liver glucokinase 2 assessed as […] in presence of 5 mM glucose by G6PDH coupled assay
Recorded metric: EC50 (µM)
// return numeric value only (unit: µM, not printed)

INPUT: # query: EC50 of entry COCC(C)Oc1cc(Oc2ccc(S(C)(=O)=O)cc2)cc(C(=O)Nc2nc3c(s2)CN(C(=O)OC(C)(C)C)CC3)c1 (stereo not drawn)
OUTPUT: 0.32

INPUT: Same again, this time with `COC[C@H](C)Oc1cc(Oc2ccc(C(=O)N3CCC3)cc2)cc(C(=O)Nc2nc3c(s2)CN(C(=O)OC)CC3)c1`
OUTPUT: 0.69

INPUT: Same again, this time with `COCCOc1cc(Oc2ccc(S(C)(=O)=O)cc2)cc(C(=O)Nc2nc3c(s2)CN(C(=O)OC(C)(C)C)CC3)c1`
OUTPUT: 2.23

INPUT: Same again, this time with `CC(C)(C)OC(=O)N1CCc2nc(NC(=O)c3cc(OCc4ccccc4)cc(Oc4ccc(S(C)(=O)=O)cc4)c3)sc2C1`
OUTPUT: 7
